// data source = the NIST ThermoML archive (doi:10.1021/acs.jced.6b00178)

Recorded viscosity by entry
- Condition summary: 293.15 K; 100 kPa; Liquid; Concentric cylinders viscometry
Express your answer in mPa·s, writing the number without its unit.

CC(=O)[O-].CCCCn1cc[n+](C)c1 [1-butyl-3-methylimidazolium acetate] ... 421.35
CCCCn1cc[n+](C)c1.COP(=O)([O-])OC [1-butyl-3-methyl-1H-imidazolium dimethylphosphate] ... 943.97
CCCCn1cc[n+](C)c1.N#C[S-] [1-butyl-3-methylimidazolium thiocyanate] ... 82.91

Exercise: // viscosity lookup, key: CCCCn1cc[n+](C)c1.F[B-](F)(F)F [1-butyl-3-methylimidazolium tetrafluoroborate]
Solution: 143.08

Exercise: // viscosity lookup, key: CCCCn1cc[n+](C)c1.N#CN=C=[N-] [1-butyl-3-methylimidazolium dicyanamide]
Solution: 36.83

----------
- Measurement protocol: xn = mol fraction of the nth substance listed
- Condition summary: 288.15 K; 100 kPa; Liquid; Concentric cylinders viscometry; x2 = 0.25
Recorded viscosity by entry
Express your answer in mPa·s, writing the number without its unit.

CCCCn1cc[n+](C)c1.O=S(=O)([O-])C(F)(F)F [1-butyl-3-methylimidazolium trifluoromethanesulfonate] + CCCC[n+]1ccn(C)c1.O=S(=O)([N-]S(=O)(=O)C(F)(F)F)C(F)(F)F ... 117.06
CCCCn1cc[n+](C)c1.N#C[S-] [1-butyl-3-methylimidazolium thiocyanate] + CCCC[n+]1ccn(C)c1.O=S(=O)([N-]S(=O)(=O)C(F)(F)F)C(F)(F)F ... 101.08
CCCCn1cc[n+](C)c1.COP(=O)([O-])OC [1-butyl-3-methyl-1H-imidazolium dimethylphosphate] + CCCC[n+]1ccn(C)c1.O=S(=O)([N-]S(=O)(=O)C(F)(F)F)C(F)(F)F ... 930.25
CC(=O)[O-].CCCCn1cc[n+](C)c1 [1-butyl-3-methylimidazolium acetate] + CCCC[n+]1ccn(C)c1.O=S(=O)([N-]S(=O)(=O)C(F)(F)F)C(F)(F)F ... 385.58

API: the following record is the query input.
Exercise: // viscosity lookup, key: CCCCn1cc[n+](C)c1.F[P-](F)(F)(F)(F)F [1-butyl-3-methylimidazolium hexafluorophosphate] + CCCC[n+]1ccn(C)c1.O=S(=O)([N-]S(=O)(=O)C(F)(F)F)C(F)(F)F
Solution: 264.71

----------
Recorded mass density by entry
- Condition summary: 313.15 K; 100 kPa; Liquid; Vibrating tube method
Express your answer in kg/m3, writing the number without its unit.

Below: 4 compounds and their reported mass density.
CC(=O)[O-].CCCCn1cc[n+](C)c1 [1-butyl-3-methylimidazolium acetate] ... 1043.5
CCCCn1cc[n+](C)c1.N#C[S-] [1-butyl-3-methylimidazolium thiocyanate] ... 1061.3
CCCCn1cc[n+](C)c1.F[B-](F)(F)F [1-butyl-3-methylimidazolium tetrafluoroborate] ... 1190.9
CCCCn1cc[n+](C)c1.COP(=O)([O-])OC [1-butyl-3-methyl-1H-imidazolium dimethylphosphate] ... 1147.6

Exercise: // mass density lookup, key: CCCCn1cc[n+](C)c1.N#CN=C=[N-] [1-butyl-3-methylimidazolium dicyanamide]
Solution: 1050.6

----------
Recorded viscosity by entry
- Measurement protocol: xn = mol fraction of the nth substance listed
- Condition summary: 328.15 K; 100 kPa; Liquid; Concentric cylinders viscometry; x2 = 0.25
Express your answer in mPa·s, writing the number without its unit.

Below: 4 compounds and their reported viscosity.
CCCCn1cc[n+](C)c1.F[P-](F)(F)(F)(F)F [1-butyl-3-methylimidazolium hexafluorophosphate] + CCCC[n+]1ccn(C)c1.O=S(=O)([N-]S(=O)(=O)C(F)(F)F)C(F)(F)F ... 39.84
CCCCn1cc[n+](C)c1.O=S(=O)([O-])C(F)(F)F [1-butyl-3-methylimidazolium trifluoromethanesulfonate] + CCCC[n+]1ccn(C)c1.O=S(=O)([N-]S(=O)(=O)C(F)(F)F)C(F)(F)F ... 23.24
CC(=O)[O-].CCCCn1cc[n+](C)c1 [1-butyl-3-methylimidazolium acetate] + CCCC[n+]1ccn(C)c1.O=S(=O)([N-]S(=O)(=O)C(F)(F)F)C(F)(F)F ... 40.09
CCCCn1cc[n+](C)c1.N#C[S-] [1-butyl-3-methylimidazolium thiocyanate] + CCCC[n+]1ccn(C)c1.O=S(=O)([N-]S(=O)(=O)C(F)(F)F)C(F)(F)F ... 20.39

API: the following record is the query input.
Exercise: // viscosity lookup, key: CCCCn1cc[n+](C)c1.COP(=O)([O-])OC [1-butyl-3-methyl-1H-imidazolium dimethylphosphate] + CCCC[n+]1ccn(C)c1.O=S(=O)([N-]S(=O)(=O)C(F)(F)F)C(F)(F)F
Solution: 78.04
